B1: glmS ribozyme (parent)
chain: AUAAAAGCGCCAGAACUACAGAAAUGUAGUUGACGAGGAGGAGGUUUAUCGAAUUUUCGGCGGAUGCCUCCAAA

variants of: B1; assay: kcat; higher = faster cleavage; RNA array; settings: with glucosamine-6-phosphate
This sample holds only a part of the variants without activity.
Experimental Endpoint: kcat (s⁻¹)
Numeric only. Scale: s⁻¹

{"Mutant Name": "G13U C50G A52C", "Units": "s⁻¹", "Result": "1.8e-05"}

Query: So what's the measured kcat for this one? A39G G59A
Response: 0.000106

Query: Please look up its kcat: G44A U55A
Response: 0.000528

Query: Can you share its kcat? I mean this variant: G40A C70U
Response: 0.000518

Query: Entry G40C U45G has what kcat?
Response: 0.000791
